Reference source: ChEMBL document CHEMBL5247649

# log10(IC50) measurements, system: UniProt:P49760
# Sequence (P49760 whole entry): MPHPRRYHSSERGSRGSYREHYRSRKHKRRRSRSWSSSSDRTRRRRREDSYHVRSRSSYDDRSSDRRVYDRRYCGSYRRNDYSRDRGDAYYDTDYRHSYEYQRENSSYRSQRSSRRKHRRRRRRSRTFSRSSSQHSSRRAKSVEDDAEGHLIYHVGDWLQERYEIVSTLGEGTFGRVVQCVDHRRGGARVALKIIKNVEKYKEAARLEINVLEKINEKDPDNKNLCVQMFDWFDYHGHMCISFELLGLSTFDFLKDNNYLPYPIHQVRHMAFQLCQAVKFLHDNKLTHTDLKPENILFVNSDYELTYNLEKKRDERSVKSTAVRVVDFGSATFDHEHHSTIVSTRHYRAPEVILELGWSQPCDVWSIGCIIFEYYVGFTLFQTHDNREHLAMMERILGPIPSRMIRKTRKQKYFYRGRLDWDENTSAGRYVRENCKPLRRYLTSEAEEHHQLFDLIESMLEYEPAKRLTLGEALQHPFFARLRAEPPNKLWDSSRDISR
Each number you see is log10 of IC50, and the unit inside the log is µM.

COc1cc(N2CCN(C)CC2)ccc1Nc1nccc(-c2cn(C)c3cnccc23)n1 ... 0.54
O=C(O[C@@H]1Cc2c(O)cc(O)cc2O[C@@H]1c1cc(O)c(O)c(O)c1)c1cc(O)c(O)c(O)c1 [EPIGALOCATECHIN GALLATE] ... 0.12
CN1Cc2nn(C)c(C#N)c2-c2cnc3[nH]c(F)c(c3c2)-c2cn(nc2C(F)(F)F)CCCC1=O ... 0.40
COc1ccc(/C=C2\SC(=S)NC2=O)cc1C#C[Si](C)(C)C ... 0.92
c1ccc(CNc2nc(Nc3cc(C4CC4)[nH]n3)c3sccc3n2)cc1 ... -1.08

Next compound, log10(IC50) to be filled in.
# value lookup — system UniProt:P49760, readout log10(IC50), item c1cc(OCCN2CCCCC2)cc(-c2n[nH]c3ccc(-c4nc[nH]n4)cc23)c1 [CC-401]
-0.39

----------
- MEASURED ON: UniProt Q9NR20
- PROCEDURE SUMMARY: biochemical
READOUT: IC50

Some molecules with known IC50 results, for comparison:
O=C(Nc1ccc2[nH]ncc2c1)c1csc(Nc2ccccc2)n1 ... > 10 µM
O=C1NC(NC23CC4CC(CC(C4)C2)C3)=N/C1=C\c1ccc2ncsc2c1 ... 0.117 µM
O=C1NC(Nc2ccccc2)=N/C1=C\c1ccc2c(c1)OCO2 ... 0.817 µM
CNCc1ccc(-c2[nH]c3cc(F)cc4c3c2CCNC4=O)cc1 [RUCAPARIB] ... > 10 µM

Bench note: what IC50 did Cc1cccc(N(C)c2nccc(-c3cnn4ncccc34)n2)c1 show?
> 10 µM

Any idea what IC50 was measured for Oc1ccc(-c2cnc3[nH]cc(-c4ccc(F)cc4)c3c2)cc1O ?
> 10 µM

----------
- MEASURED ON: Dual specificity tyrosine-phosphorylation-regulated kinase 4 (Homo sapiens)
- Sequence (Q9NR20 whole entry): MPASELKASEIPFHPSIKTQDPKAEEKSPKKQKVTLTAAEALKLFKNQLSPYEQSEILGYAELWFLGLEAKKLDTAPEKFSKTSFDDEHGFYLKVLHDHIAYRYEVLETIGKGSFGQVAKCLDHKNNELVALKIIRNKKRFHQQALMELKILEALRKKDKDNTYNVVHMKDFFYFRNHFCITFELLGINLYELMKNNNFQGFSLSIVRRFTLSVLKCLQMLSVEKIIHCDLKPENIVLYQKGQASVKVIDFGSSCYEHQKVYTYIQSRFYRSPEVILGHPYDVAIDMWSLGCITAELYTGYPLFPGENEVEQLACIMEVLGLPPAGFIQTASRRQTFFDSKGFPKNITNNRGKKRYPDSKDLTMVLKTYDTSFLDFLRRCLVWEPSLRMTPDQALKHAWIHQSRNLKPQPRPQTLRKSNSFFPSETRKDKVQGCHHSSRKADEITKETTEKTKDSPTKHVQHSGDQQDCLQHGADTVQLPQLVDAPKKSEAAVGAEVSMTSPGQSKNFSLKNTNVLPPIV
- PROCEDURE SUMMARY: biochemical
READOUT: pIC50
pIC50 here: minus log base 10 of the concentration, concentration in moles per litre.

Use these answered entries as a reference point.
CCN1CCN(Cc2ccc(Nc3ncc(F)c(-c4cc(F)c5nc(C)n(C(C)C)c5c4)n3)nc2)CC1 ... 5.45
Cc1nc2ccc(-c3cc(N)nc(N)c3)nc2n1CC(F)(F)F ... 6.37
Cn1cc(-c2ccc3cnc(NC(=O)C4CCN(S(C)(=O)=O)CC4)cc3c2)cn1 ... 6.21

Then there is this compound:
Tell me the measured pIC50 of COc1cc(N2CCN(C)CC2)ccc1Nc1nccc(-c2cn(C)c3cnccc23)n1 , please.
5.20

----------
- PROCEDURE SUMMARY: in vitro
- SETTINGS: mouse, ht-22
We'd kindly ask you to apply these IC50 at 48 h classes: Low (below 6 µM), Medium (6 µM to below 30 µM), High (30 µM or more)

Cn1cc(-c2ccc3occ(-c4cccc(-c5ccncc5)c4)c3n2)cn1 ... Low
O=C(Nc1ccc2[nH]ncc2c1)c1csc(Nc2ccccc2)n1 ... High
CC(C)Oc1ccc(F)c(-c2cnc(N)c(C(=O)Nc3cnccc3N3CCC[C@@H](C(=O)O)C3)n2)c1 ... Medium

Band assignment needed for Oc1ccc(-c2n[nH]c3ncc(-c4ccc(O)c(O)c4)cc23)cc1 please.
Low

Just checking, what class would you give O=C1Nc2cc(S(=O)(=O)Cc3c(Cl)cccc3Cl)ccc2S/C1=C\c1ccc(O)c([N+](=O)[O-])c1 here?
Low

Where would Oc1ccc(-c2cnc3[nH]cc(-c4ccc(F)cc4)c3c2)cc1O land among the classes by reported IC50 at 48 h?
Medium

Quick check: band for Cc1nc2ccc(-c3cc(N)nc(N)c3)nc2n1CC(F)(F)F
Medium

Lab note: which band did Cc1cc(C(=O)NC2Nc3cccc(C)c3N2[C@H]2CCCCN(C(=O)/C=C/CN(C)C)C2)ccn1 (stereo not given in full) land in?
High

Please classify: c1ccc(-c2ccc3[nH]ncc3c2)cc1
High

----------
The next entries give measured pIC50 for Dual specificity protein kinase CLK4 (Homo sapiens).
Scale explanation: pIC50 corresponds to minus log10 of a concentration expressed in moles per litre.

Worked cases, pIC50 given:
CCN(CC)Cc1ccc(OC)c(-c2cc3c(-c4ccc(C(=O)O)c(C(C)C)c4)ccnc3[nH]2)c1 ... 6.17
COc1ccc2sc(-c3cncc(NC(C)=O)c3)nc2c1 ... 6.47
CCNc1cc(Nc2ccc(C(=O)N3CCC(N4CCOCC4)CC3)cc2OC)nc2[nH]cc(C(F)(F)F)c12 ... 7.68

Return pIC50 measured with Dual specificity protein kinase CLK4 (Homo sapiens) given this molecule: CC(C)Oc1ccc(F)c(-c2cnc(N)c(C(=O)Nc3cnccc3N3CCC[C@@H](C(=O)O)C3)n2)c1
Sequence (Q9HAZ1 whole entry): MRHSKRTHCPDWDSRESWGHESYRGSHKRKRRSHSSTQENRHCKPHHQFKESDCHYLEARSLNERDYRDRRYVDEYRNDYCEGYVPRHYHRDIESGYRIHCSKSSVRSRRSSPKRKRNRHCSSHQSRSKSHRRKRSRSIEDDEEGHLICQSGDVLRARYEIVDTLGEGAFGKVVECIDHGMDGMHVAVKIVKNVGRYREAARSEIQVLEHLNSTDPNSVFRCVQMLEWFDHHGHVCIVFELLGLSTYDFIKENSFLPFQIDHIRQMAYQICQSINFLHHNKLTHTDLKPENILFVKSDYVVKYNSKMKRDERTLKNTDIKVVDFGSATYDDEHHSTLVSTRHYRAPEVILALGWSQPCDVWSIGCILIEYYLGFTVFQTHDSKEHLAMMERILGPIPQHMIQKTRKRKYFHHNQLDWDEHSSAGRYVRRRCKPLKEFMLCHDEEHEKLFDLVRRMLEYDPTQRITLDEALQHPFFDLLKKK
7.68

For Dual specificity protein kinase CLK4 (Homo sapiens), provide pIC50 of Oc1ccc(-c2cnc3[nH]cc(-c4ccc(F)cc4)c3c2)cc1O please.
6.05

Query pIC50 on Dual specificity protein kinase CLK4 (Homo sapiens) for O=C(Nc1ccc2[nH]ncc2c1)c1csc(Nc2ccccc2)n1
6.91

----------
- MEASURED ON: Dual specificity protein kinase CLK3 (Homo sapiens)
- Sequence (P49761 whole entry): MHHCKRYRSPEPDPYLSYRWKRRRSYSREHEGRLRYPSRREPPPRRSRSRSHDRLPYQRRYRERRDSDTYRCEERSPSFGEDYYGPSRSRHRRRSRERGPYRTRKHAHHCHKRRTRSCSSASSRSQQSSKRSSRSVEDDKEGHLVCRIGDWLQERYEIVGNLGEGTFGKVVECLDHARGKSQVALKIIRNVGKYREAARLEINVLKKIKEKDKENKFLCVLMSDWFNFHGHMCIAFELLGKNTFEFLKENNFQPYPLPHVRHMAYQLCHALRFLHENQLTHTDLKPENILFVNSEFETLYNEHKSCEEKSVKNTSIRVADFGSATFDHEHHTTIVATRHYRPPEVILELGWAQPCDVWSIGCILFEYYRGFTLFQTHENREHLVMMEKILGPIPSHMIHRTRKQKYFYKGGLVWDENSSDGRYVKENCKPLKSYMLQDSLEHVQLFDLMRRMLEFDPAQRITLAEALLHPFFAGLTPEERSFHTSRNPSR
- PROCEDURE SUMMARY: biochemical
READOUT: IC50 (µM)
Give just the number in µM; leave the unit off.

Example entries begin here.
CCN(CC)Cc1ccc(OC)c(-c2cc3c(-c4ccc(C(=O)O)c(C(C)C)c4)ccnc3[nH]2)c1 ... 2.41
COc1ccc2nc3c(CO)cc(OC)cc3c(SC[C@H]3CCNC3)c2c1 ... 6.5
CN1CCN(C(=O)C(C)(C)c2ccc(C(=O)Cc3cn4cc(-c5ccncc5)ccc4n3)cc2)CC1 ... 0.74
Cc1ccc([N+](=O)[O-])cc1S(=O)(=O)N(C)/N=C/c1cnc2ccc(Br)cn12 ... 0.0119
CC(C)Oc1ccc(F)c(-c2cnc(N)c(C(=O)Nc3cnccc3N3CCC[C@@H](C(=O)O)C3)n2)c1 ... 2.48
c1ccc(-c2ccc3[nH]ncc3c2)cc1 ... 1.69
CCN1CCN(Cc2ccc(Nc3ncc(F)c(-c4cc(F)c5nc(C)n(C(C)C)c5c4)n3)nc2)CC1 ... 7.48
COc1ccc(/C=C2\SC(=S)NC2=O)cc1C#C[Si](C)(C)C ... 7.23
COc1ccc2c3ccnc(Cl)c3n(CC#N)c2c1 ... 4.92

Fill blank: measured IC50 of the compound O=C(O)c1ccc2c(c1)nc(Nc1cccc(Cl)c1)c1ccncc12 is ____.
0.0774

----------
- MEASURED ON: Cyclin-dependent kinase 5/CDK5 activator 1 (Homo sapiens, UniProt Q00535)
- Sequence (Q00535 whole entry): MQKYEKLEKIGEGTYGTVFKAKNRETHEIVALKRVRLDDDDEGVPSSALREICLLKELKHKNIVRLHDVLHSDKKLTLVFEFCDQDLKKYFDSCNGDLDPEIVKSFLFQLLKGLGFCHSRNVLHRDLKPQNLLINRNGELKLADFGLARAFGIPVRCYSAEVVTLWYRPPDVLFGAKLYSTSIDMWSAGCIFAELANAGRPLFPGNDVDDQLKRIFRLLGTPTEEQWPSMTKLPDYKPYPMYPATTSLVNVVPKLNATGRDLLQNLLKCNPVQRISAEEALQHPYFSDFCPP
- Sequence (Q15078 whole entry, further chain): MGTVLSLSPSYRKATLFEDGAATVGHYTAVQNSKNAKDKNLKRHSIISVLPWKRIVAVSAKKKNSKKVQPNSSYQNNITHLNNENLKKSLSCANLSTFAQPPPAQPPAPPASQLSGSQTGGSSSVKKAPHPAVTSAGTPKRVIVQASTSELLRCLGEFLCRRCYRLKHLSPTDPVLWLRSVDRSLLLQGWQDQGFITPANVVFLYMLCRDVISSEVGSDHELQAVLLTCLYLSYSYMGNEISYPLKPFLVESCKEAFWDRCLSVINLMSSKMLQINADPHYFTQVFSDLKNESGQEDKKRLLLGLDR
- PROCEDURE SUMMARY: biochemical
READOUT: IC50 (nM)
Please state the figure in nM; there is no need to write the unit.

Examples with answers:
Cn1cc(-c2ccc3cnc(NC(=O)C4CCN(S(C)(=O)=O)CC4)cc3c2)cn1 ... 1790
CC(C)CN1CCC(C(=O)Nc2cc3cc(-c4cnn(C)c4)ccc3cn2)CC1 ... 1030
Oc1ccc(-c2n[nH]c3ncc(-c4ccc(O)c(O)c4)cc23)cc1 ... 38.4

From here, focus on the item given below.
Bench note: what IC50 did O=C(O[C@@H]1Cc2c(O)cc(O)cc2O[C@@H]1c1cc(O)c(O)c(O)c1)c1cc(O)c(O)c(O)c1 [EPIGALOCATECHIN GALLATE] show?
431

----------
- MEASURED ON: Dual specificity tyrosine-phosphorylation-regulated kinase 1A (Homo sapiens)
- PROCEDURE SUMMARY: biochemical
Listed here: items and their measured pIC50.
Just so you know, pIC50 here is -log10 of the concentration in molar units; reply with that number alone.

Study these solved cases before continuing.
O=C(O[C@@H]1Cc2c(O)cc(O)cc2O[C@@H]1c1cc(O)c(O)c(O)c1)c1cc(O)c(O)c(O)c1 [EPIGALOCATECHIN GALLATE] ... 6.31
O=C1Nc2cc(S(=O)(=O)Cc3c(Cl)cccc3Cl)ccc2S/C1=C\c1ccc(O)c([N+](=O)[O-])c1 ... 5.51
COc1cc(CCc2c(O)ccc(O[C@@H]3O[C@H](CO)[C@@H](O)[C@H](O)[C@H]3O)c2C(C)=O)ccc1O [SCORZODIHYDROSTILBENE A] ... 5.64
Cn1cc(-c2ccc3occ(-c4cccc(-c5ccncc5)c4)c3n2)cn1 ... 5.94
CCN(CC)Cc1ccc(OC)c(-c2cc3c(-c4ccc(C(=O)O)c(C(C)C)c4)ccnc3[nH]2)c1 ... 5.08

What value of pIC50 has been reported for the following compound? Cc1cccc(N(C)c2nccc(-c3cnn4ncccc34)n2)c1
6.36

What value of measured pIC50 is listed for CN1CCN(C(=O)C(C)(C)c2ccc(C(=O)Cc3cn4cc(-c5ccncc5)ccc4n3)cc2)CC1 ?
6.60
